Experiment description: NCI Yeast Anticancer Drug Screen. Data for the mlh1 rad18 strain (AID 175)
Test context: S. cerevisiae mlh1 rad18 strain growth inhibition; at 50.0 µM; hits give high values
Compounds without any hit were thinned out: in the full panel of roughly 79,000, 15% have a hit.
Kindly return condition met if reported growth inhibition is no lower than -10%; return condition not met if it is lower.

COc1cc2c(cc1OC)C(c1ccccc1[N+](=O)[O-])=NCC2 ... condition met

Then this compound:
Query block: Please tell me: is the compound O=C(NCCCCCCNC(=O)C1CCCN1C(=O)OCc1ccccc1)C1CCCN1C(=O)OCc1ccccc1 (configuration not stated) at or over -10% in terms of growth inhibition?
Result block: condition met

====

Experiment description: NCI Yeast Anticancer Drug Screen. Data for the cln2 rad14 strain (AID 165);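 further: 0% = growth equal to vehicle treated cultures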
Test context: S. cerevisiae cln2 rad14 strain, at 50.0 µM, hits give high values
This is part of a sample that, as a whole, favours compounds with a hit. Of some 79,000 tested, about 15% had one in any assay.
Result type: growth inhibition (%)
Numbers only here, please. The scale is %.

Look over these answered cases.
Cn1c(=O)c2c3ccccc3c(C(=O)c3ccccc3)n2c2ccccc21 ... 25.9
Cc1cccc(NC(=O)CSc2nnc(-c3ccc(N=Cc4ccc(Cl)cc4)cc3)o2)c1 ... -42.5
CCCCCN(CCCCC)CC(O)c1cc(-c2ccccc2)nc2c(Cl)cc(Cl)cc12 (centres undefined) ... 18

Consider now this further molecule.
Query block: Item under review: O=[N+]([O-])c1cc2c(c([N+](=O)[O-])c1)Nc1cc(Cl)ccc1O2 . Reported growth inhibition?
Result block: 11.8

====

Experiment description: NCI Yeast Anticancer Drug Screen. Data for the rad50 strain (AID 155);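 further: 0% = growth of vehicle-only cultures of the same strain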
Test context: S. cerevisiae rad50 strain growth inhibition; at 50.0 µM; hits give high values
About 79,000 compounds went through this panel and 15% of them were active in at least one assay; those are over-represented in the sample as a whole.
Result type: growth inhibition (%)
Numbers only here, please. The scale is %.

O=C(O)c1cccc(Sc2ccccc2)c1 ... -0.05

Query block: Item under review: NC(=O)CS(=O)Cc1cccc(Br)c1 (stereo not given) . Reported growth inhibition?
Result block: -13.9

Query block: Follow-up item: O=C1C=C(Nc2ccc(S(=O)(=O)Nc3ncccn3)cc2)c2ccccc2C1=O
Result block: 27.4

Query block: Follow-up item: COC(=O)C1CCCN1C(=O)c1ccccc1 (stereo not given)
Result block: 3.6

Query block: Follow-up item: CCCC(C)C(=O)OCCCc1ccccc1 (stereo not given)
Result block: 7.55

Query block: Follow-up item: CC(C)=Cc1ccccc1C1(C)C(c2ccccc2)=C1c1ccccc1
Result block: -3.35

Query block: Follow-up item: Cn1c(=O)oc2cc(C(=O)CN3CCN(Cc4ccc5c(c4)OCO5)CC3)c(Cl)cc21
Result block: 29.5

Query block: Follow-up item: Cc1ccc(C(=O)c2ccccc2C(=O)O)cc1C(=O)O
Result block: 8.9

====

Experiment description: NCI Yeast Anticancer Drug Screen. Data for the rad50 strain (AID 155);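 further: 0% = growth of vehicle-only cultures of the same strain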
Test context: S. cerevisiae rad50 strain growth inhibition; at 50.0 µM; hits give high values
This is part of a sample that, as a whole, favours compounds with a hit. Of some 79,000 tested, about 15% had one in any assay.
Each entry below carries its reported growth inhibition.
Numbers only here, please. The scale is %.

C=CCC1(CO)CCCCC1O (configuration not stated) ... 1.6
OC(CCN1CCC2CCC(C2)C1)(c1ccccc1)c1ccco1 (configuration not stated) ... 7.75
OCC1CCCCCCC1 ... -4.25
CCN(CC)Cc1cc(Oc2ccc(O)c(CN(CC)CC)c2)ccc1O ... 11.1
O=C(O)c1cccc2ccc3cccc(C(=O)O)c3c12 ... -5.35
Cc1nc(Nc2ccccc2)c(C#N)c(=O)[nH]1 ... -19.6
CCOC(=O)NN(C(=O)OCC)c1c(NN)n(C)c(=O)n(C)c1=O ... 2.7
O=CNC(CSC(=O)c1ccccc1)C(=O)O (configuration not stated) ... -0.35

Query block: Item under review: CN(C)c1nc(-c2ccccc2)c(Cc2ccccc2)c(=O)o1 . Reported growth inhibition?
Result block: -1.9

Query block: Follow-up item: Cc1ccc(S(=O)(=O)N/N=C2/C(=O)N(c3ccc(Cl)cc3C)C(=O)C(=O)C2c2nc3ccccc3s2)cc1 (configuration not stated)
Result block: 0.85

Query block: Follow-up item: CC1=C(CCCO)/C(=N\O)CCC1
Result block: 3.75

Query block: Follow-up item: CC(=O)Nc1cc2ccccc2oc1=O
Result block: -5.5
